biological target: T1, human BAFF (10056-HNCH, Sino biological) (human, UniProt Q9Y275 134-285); experiment: competition ELISA: biotin-labeled BAFF to coated BAFF-R
T1 construct: Bought protein
RESULT TYPE: IC50
Please append the unit to your numeric answer.

Use these answered entries as a reference point.
TACI-4 Fc (Fc fusion, two identical polypeptides) GGRSRVDQEERFPQGLWTGVAMRSCPEEQYWDPLLGTCMSCKTICNHQSQRTCAAFCRSLSCRKEQGKFYDHLLRDCISCASICGQHPKQCAYFCENKLRSPVNLPPELRKQRSGEVENNSDNSGKYQGLEHRGSEASPALPGLKLSADQVALVYSDKTHTCPPCPAPEAEGAPSVFLFPPKPKDTLMISRTPEVTCVVVDVSHEDPEVKFNWYVDGVEVHNAKTKPREEQYNSTYRVVSVLTVLHQDWLNGKEYKCKVSNKALPSSIEKTISKAKGQPREPQVYTLPPSRDELTKNQVSLTCLVKGFYPSDIAVEWESNGQPENNYKTTPPVLDSDGSFFLYSKLTVDKSRWQQGNVFSCSVMHEALHNHYTQKSLSLSPGK : 33.5 nM
TACI-9 Fc (Fc fusion, TACI positions 68-108, no mutation, fused directly to Fc; two identical polypeptides) SLSCRKEQGKFYDHLLRDCISCASICGQHPKQCAYFCENKLDKTHTCPPCPAPEAEGAPSVFLFPPKPKDTLMISRTPEVTCVVVDVSHEDPEVKFNWYVDGVEVHNAKTKPREEQYNSTYRVVSVLTVLHQDWLNGKEYKCKVSNKALPSSIEKTISKAKGQPREPQVYTLPPSRDELTKNQVSLTCLVKGFYPSDIAVEWESNGQPENNYKTTPPVLDSDGSFFLYSKLTVDKSRWQQGNVFSCSVMHEALHNHYTQKSLSLSPGK : 5.02 nM
TACI-20Fc (Fc fusion, Fused directly to Fc; two identical polypeptides) KEQGKFYDHLLRDCISCASICGQHPKQCAYFCEDKTHTCPPCPAPEAEGAPSVFLFPPKPKDTLMISRTPEVTCVVVDVSHEDPEVKFNWYVDGVEVHNAKTKPREEQYNSTYRVVSVLTVLHQDWLNGKEYKCKVSNKALPSSIEKTISKAKGQPREPQVYTLPPSRDELTKNQVSLTCLVKGFYPSDIAVEWESNGQPENNYKTTPPVLDSDGSFFLYSKLTVDKSRWQQGNVFSCSVMHEALHNHYTQKSLSLSPGK : 2360 nM
RCT-18 (Telitacicept) (Fc fusion, Positive control; TACI part is positions 13-118 of the extracellular region of human TACI, the rest is Fc) SRVDQEERFPQGLWTGVAMRSCPEEQYWDPLLGTCMSCKTICNHQSQRTCAAFCRSLSCRKEQGKFYDHLLRDCISCASICGQHPKQCAYFCENKLRSPVNLPPELDKTHTCPPCPAPEAEGAPSVFLFPPKPKDTLMISRTPEVTCVVVDVSHEDPEVKFNWYVDGVEVHNAKTKPREEQYNSTYRVVSVLTVLHQDWLNGKEYKCKVSNKALPSSIEKTISKAKGQPREPQVYTLPPSRDELTKNQVSLTCLVKGFYPSDIAVEWESNGQPENNYKTTPPVLDSDGSFFLYSKLTVDKSRWQQGNVFSCSVMHEALHNHYTQKSLSLSPGK : 27.5 nM

Looking up TACI-17Fc (Fc fusion, Fused directly to Fc; two identical polypeptides) SCRKEQGKFYDHLLRDCISCASICGQHPKQCAYFCEDKTHTCPPCPAPEAEGAPSVFLFPPKPKDTLMISRTPEVTCVVVDVSHEDPEVKFNWYVDGVEVHNAKTKPREEQYNSTYRVVSVLTVLHQDWLNGKEYKCKVSNKALPSSIEKTISKAKGQPREPQVYTLPPSRDELTKNQVSLTCLVKGFYPSDIAVEWESNGQPENNYKTTPPVLDSDGSFFLYSKLTVDKSRWQQGNVFSCSVMHEALHNHYTQKSLSLSPGK , I found its IC50 recorded as 2.82 nM
